# ASSAY_TARGET: bD4Pro (unlinked binary dengue-4 virus NS2B-NS3 protease) (Dengue virus type 4)
# Construct: The viral protease consists of the N‐terminal third of the nonstructural protein NS3; NS3 has to form a complex with its cofactor NS2B to achieve proteolytic activity; His6 (cleaved yes); made in house
# Sequence (Q2YHF2 1475-1652 limits assumed): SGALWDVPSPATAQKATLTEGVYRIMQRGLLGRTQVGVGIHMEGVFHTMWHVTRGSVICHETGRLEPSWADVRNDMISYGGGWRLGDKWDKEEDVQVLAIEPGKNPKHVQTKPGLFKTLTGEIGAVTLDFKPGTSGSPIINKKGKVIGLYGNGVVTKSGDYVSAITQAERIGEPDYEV
# Sequence (Q2YHF2 1397-1436 limits assumed): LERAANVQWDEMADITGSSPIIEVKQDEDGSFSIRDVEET
# ASSAY_TEXT: Enzyme kinetics with bD4Pro, substrate Benzoyl-Nle-Lys-Arg-Arg-AMC
# Assay type: biochemical
# Description: Measurements with the dengue 4 virus protease construct (bD4Pro; expressed and purified by a similar methodology as described for bZiPro15 with slight modification of using Tobacco Etch Virus (TEV) protease instead of thrombin for His6‐tag cleavage) were performed in a Cytation 3 Mulitmode plate reader with λ ex at 380 nm and λ em at 460 nm. Assays were carried out as triplicate at 37 °C. […] Fluorescent readings were recorded at 1‐minute intervals over 10 minutes. […]
Starred links: 1 amine or outer side, 2 acyl side, 3 side chain; linkers in the order of their positions; H or OH if unused. Positions of bridges follow the written chain, without caps; N, C: chain ends. Non-standard residues stand in square brackets, D forms with d. Residues, ends and D or L forms follow the SMILES beside them. dεLys(Nα-amidino) = N=C(N)N[C@H](CCCCN[*:1])C(=O)[*:2]; NHCH2(1,3-C6H4)CH2CO = O=C(Cc1cccc(CN[*:1])c1)[*:2]
READOUT_NAME: Ki

// solved cases for Ki follow
INSERT INTO measurements (compound, value_reported) VALUES
  ('N=C(N)N[C@@H]1CCCNC(=O)[C@H](CCCCN)NC(=O)[C@H](CCCCN)NC(=O)Cc2ccc(cc2)CNC(=O)CCCNC1=O', '60.5 µM'),
  ('NCCCC[C@@H]1NC(=O)Cc2cccc(c2)CNC(=O)CNC(=O)[C@H](N)CCCCNC(=O)[C@H](CCCCN)NC1=O [Inhibitor 20] (H-[dK]G[NHCH2(1,3-C6H4)CH2CO]KK; lactam 1-C)', '282 µM'),
  ('N=C(N)N[C@H](CCCCNC(=O)[C@H](CCCCN)NC(=O)[C@H](CCCCN)NC(=O)Cc1cccc(CNC(=O)CN)c1)C(N)=O', '0.775 µM');

The compound identified as `N=C(N)N[C@@H]1CCCCNC(=O)[C@H](CCCCN)NC(=O)[C@H](CCCCN)NC(=O)Cc2cccc(c2)CNC(=O)[C@H]2CCCN2C1=O` registered its Ki at 4.08 µM

The compound identified as `N=C(N)N[C@H](CCCCNC(=O)[C@H](CCCCN)NC(=O)[C@H](CCCCN)NC(=O)Cc1cccc(CNC(=O)CN)c1)C(=O)O` registered its Ki at 75 µM

The compound identified as `N=C(N)N[C@@H]1CCCCNC(=O)[C@H](CCCCN)NC(=O)[C@H](CCCCN)NC(=O)CCCNC(=O)CNC1=O` registered its Ki at 6.09 µM

The compound identified as `N=C(N)N[C@@H]1CCCCNC(=O)[C@H](CCCCN)NC(=O)[C@H](CCCCN)NC(=O)Cc2ccc(cc2)CNC(=O)CCCNC1=O` registered its Ki at 4.73 µM

The compound identified as `N=C(N)N[C@@H]1CCCCNC(=O)[C@H](CCCCN)NC(=O)[C@H](CCCCN)NC(=O)Cc2cccc(c2)CNC(=O)CNC1=O` registered its Ki at 0.142 µM

The compound identified as `NCCCC[C@@H]1NC(=O)Cc2cccc(c2)CNC(=O)CNC(=O)[C@H](NC(N)=O)CCCCNC(=O)[C@H](CCCCN)NC1=O` registered its Ki at 135 µM

The compound identified as `CC(C)[C@H]1NC(=O)[C@H](NC(=N)N)CCCCNC(=O)[C@H](CCCCN)NC(=O)[C@H](CCCCN)NC(=O)Cc2cccc(c2)CNC1=O` registered its Ki at 0.486 µM

The compound identified as N=C(N)N[C@@H]1CCCCNC(=O)[C@H](CCCCN)NC(=O)[C@H](CCCCN)NC(=O)CNC(=O)CNC(=O)CNC1=O [Inhibitor 25] (cyclo(GGGKK[dεLys(Nα-amidino)])) registered its Ki at 0.378 µM

The compound identified as `C[C@H]1NC(=O)[C@H](NC(=N)N)CCCCNC(=O)[C@H](CCCCN)NC(=O)[C@H](CCCCN)NC(=O)Cc2cccc(c2)CNC1=O` registered its Ki at 0.125 µM

The compound identified as `N=C(N)N[C@@H]1CCCCNC(=O)[C@H](CCCCN)NC(=O)[C@H](CCCCN)NC(=O)Cc2cccc(c2)NC(=O)CCCNC1=O` registered its Ki at 5.8 µM

The compound identified as `CC(=O)NCc1cccc(CC(=O)N[C@@H](CCCCN)C(=O)N[C@@H](CCCCN)C(=O)NCCCCCNC(=N)N)c1` registered its Ki at 18.1 µM

The compound identified as `N=C(N)N[C@@H]1CCCCNC(=O)[C@H](CCCCN)NC(=O)[C@H](CCCCN)NC(=O)CCCCNC(=O)CNC1=O` registered its Ki at 1.12 µM

The compound identified as `N=C(N)N[C@@H]1CCCCNC(=O)[C@H](CCCCN)NC(=O)[C@H](CCCCN)NC(=O)CCCCCNC(=O)CNC1=O` registered its Ki at 1.99 µM

The compound identified as `N=C(N)N[C@H]1CCCCNC(=O)[C@H](CCCCN)NC(=O)[C@H](CCCCN)NC(=O)Cc2ccc(cc2)CNC(=O)CCCNC1=O` registered its Ki at 11 µM

The compound identified as `N=C(N)N[C@@H]1CCCCNC(=O)[C@H](CCCCN)NC(=O)[C@H](CCCCN)NC(=O)Cc2cccc(c2)CNC1=O` registered its Ki at 1.28 µM

The compound identified as `N=C(N)N[C@@H]1CCCCNC(=O)[C@H](CCCCN)NC(=O)[C@H](CCCCN)NC(=O)Cc2cccc(c2)CNC(=O)CCNC1=O` registered its Ki at 0.182 µM
